test: S. cerevisiae growth modulation with rapamycin, primary screen, strain BY4716, OD600, 96 h (AID 1091); details: higher = more signal, called active from +8 up or from −8 down; note: test concentration not given here
z-score reference

Compound	z-score
C=CCC(OC(C)=O)[C@@H]1[C@@H](N(Cc2cccc3ccccc23)C(=O)c2ccc(-c3ccccc3)cc2)c2cc(OCCCO)ccc2N1C(=O)c1ccc2ccccc2n1 (some centres undefined)	-0.0728
O=C1C2C=CC(C(O)c3cccs3)N(Nc3ccccc3)C2C(=O)N1c1ccccc1 (centres undefined)	0.231
CO[C@H]1O[C@H](CO)[C@@H](OC(=O)Nc2ccc(C(F)(F)F)cc2)[C@H](OC(=O)Nc2ccccc2-c2ccccc2)[C@@H]1OC(=O)Nc1ccccc1-c1ccccc1	4.92
COc1ccc(C#Cc2ccc3c(c2)[C@]2(C(=O)N3)[C@H](C(=O)Nc3nc4ccccc4s3)[C@H]3C(=O)O[C@H](c4ccccc4)[C@H](c4ccccc4)N3[C@@H]2c2ccc(OCCO)cc2)cc1	1.64

###

composite z-score reference
experiment: small-molecule microarray binders of probe aCHRDL2, primary screen, biochemical, biotinylated probe, 635/667 nm fluorescence (AID 1100); conditions: higher = more signal

Compound	composite z-score
CN(C)C(=O)[C@@]1(CCS(=O)(=O)c2ccccc2)N=C(c2ccc(OCCCO)cc2)O[C@H]1c1ccccc1N=[N+]=[N-]	0.817
COC(=O)[C@H](Cc1ccc(O)cc1)N1CC2=CCCC=C[C@@H]2[C@H]1[C@H](O)Cc1ccccc1	-0.538
C=CCC(OC(C)=O)[C@@H]1[C@@H](N(Cc2ccc(-c3ccccc3)cc2)C(=O)c2ccc(-c3ccccc3)cc2)c2cc(OCCCO)ccc2N1C(=O)c1ccc2ccccc2n1 (some centres not stated)	0.168
CO[C@H]1O[C@H](CO)[C@@H](OC(=O)Nc2ccc3c(c2)OCO3)[C@@H]2OC(=O)[C@@H](Cc3ccccc3)C/C=C/C[C@H](Cc3ccccc3)C(=O)O[C@@H]12	0.259
CCCC[C@@H](O)C1=C(COC)Cn2c(=O)n(-c3ccccc3)c(=O)n2[C@H]1CO	-0.318
CCCCC(=C=CC[C@H](O)c1ccc(OCCO)cc1)C[C@H](O)c1ccccn1	-0.112
C[C@H]1NC(=O)C([C@@H](C)OCc2ccccc2)NC(=O)[C@@]23C(=O)N[C@@H](Cc4ccccc4)C2[C@H](C)[C@@]2(C)O[C@H]2C3/C=C/C/C=C\CNC1=O (some centres not stated)	-0.603

###

test: E. coli growth modulation, two-sided OD650, primary screen, E. coli filamentation project, strain DRC41, 24 h (AID 1093); settings: OD650, 24 h, higher = more signal, called active from +8 up or from −8 down;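 note: MC1000 strain lacking acrAB efflux and sulA so SOS filamentation is blocked; test concentration not given here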

Molecule	z-score
CCOC(=O)C1=CC[C@@H](c2ccccc2)N(S(=O)(=O)C[Si](C)(C)C)[C@H]1c1ccccc1	-0.453
COc1ccc(NN2C(C(O)c3cc(C(F)(F)F)cc(C(F)(F)F)c3)C=CC3C(=O)N(C4CCCCC4)C(=O)C32)cc1 (centres undefined)	-0.804
CC(C)N1CC=CC23O[C@@H]4C=CCCOC(=O)C4[C@H]2C(=O)N(CCCCCO)[C@@H]3C1=O (some centres undefined)	0.447
CN1C(=O)[C@]2(CCS(=O)(=O)c3ccccc3)N=C(c3ccc(OCCCO)cc3)O[C@@H]2c2ccccc21	-0.532
NC(=O)NCC#Cc1ccc2c(c1)[C@]1(C(=O)N2)[C@H](C(=O)Nc2nc3ccccc3s2)[C@H]2C(=O)O[C@H](c3ccccc3)[C@H](c3ccccc3)N2[C@@H]1c1ccc(OCCO)cc1	0.976
C[C@H]1NC(=O)C([C@@H](C)OCc2ccccc2)NC(=O)[C@@]23C(=O)N[C@@H](Cc4ccccc4)C2[C@H](C)[C@@]2(C)O[C@H]2C3/C=C/C/C=C\CNC1=O (some centres undefined)	0.147
C=CCNC(=O)[C@@H]1[C@H]2C(=O)O[C@H](c3ccccc3)[C@H](c3ccccc3)N2[C@H](c2ccccc2OCCO)[C@@]12C(=O)N(C(=O)OCCOC)c1ccc(C#CCCO)cc12	-0.625
CC(C)=CCN(C(=O)C#Cc1ccccc1)[C@H](CO)c1ccccc1	0.354
COC(=O)[C@H](Cc1ccc(O)cc1)N1CC2=CCCC=C[C@@H]2[C@H]1[C@H](O)Cc1ccccc1	0.65
CCc1cccc(NC(=O)O[C@H]2[C@H](OC(=O)Nc3ccc4c(c3)OCO4)[C@H](OC(=O)Nc3ccc4c(c3)OCO4)[C@@H](OC)O[C@@H]2CO)c1	0.641
CCCC=C(CCC)[C@@H](NC(=O)c1ccccc1)c1ccc(C(=O)OC)cc1	0.689
CCCC=C(CCC)[C@@H](NC(=O)c1ccco1)c1ccc(C(=O)OC)cc1	-0.868
CC[C@H](C)C(=O)O[C@H]1CC[C@]2(C)C3=C(CCC2C1(C)C)[C@]1(C)CC[C@H]([C@H](C)CCCC(C)C)[C@@]1(C)CC3 (some centres undefined)	2.24
COCCOC(=O)N1C(=O)[C@@]2(c3cc(C#CC4=CCCCC4)ccc31)[C@H](c1ccc(OCCO)cc1)N1[C@H](c3ccccc3)[C@H](c3ccccc3)OC(=O)[C@H]1[C@@H]2C(=O)N1CCCCCCC1	3.25
CCOC(=O)C1=CC[C@@H](c2ccccc2Cl)N(S(=O)(=O)c2ccc(C)cc2)[C@H]1c1cccc(OC)c1	-1.08
C=C(COC)/C(=C/C[C@@H](OC(C)=O)c1ccccc1OCCO)c1cc(C(=O)OC)ccc1OC	0.174
C=C(CCCC)/C(=C/C[C@H](OC(C)=O)c1cccc(OCCO)c1)c1cc(C(=O)OC)ccc1OC	1.01
Cc1ccc(F)cc1S(=O)(=O)N[C@@H]1CCN(Cc2ccc3c(c2)OCO3)C1	-1.4
C=C(COC)/C(=C/C[C@H](OC(=O)c1ccncc1)c1cccc(OCCO)c1)c1cnc2ccccc2c1	-0.0055
C=CC[C@]1(C(=O)OC)N=C(c2ccc(OCCCO)cc2)O[C@H]1c1ccccc1N=[N+]=[N-]	-0.225
Cc1ccc(S[C@]2(C(=O)NCCCN(C)C)CC(=O)N(Cc3ccccc3Cl)[C@@H]2c2ccc(CO)cc2I)cc1	0.562
O=C1NC(=O)C2C1C=CC(C(O)c1cccc(O)c1)N2Nc1ccc(Cl)cc1Cl (centres undefined)	-2.08
COCCCNC(=O)[C@@H]1c2ccccc2C(=O)N(C2CCCCC2)[C@H]1c1ccc(CO)cc1	0.216
CC(C)C[C@@H]1NC(=O)[C@H]2C[C@@H](C(=O)NCCCCCCNC(=O)CS)[C@@H](c3ccc(O)cc3)N2C1=O	0.205
O=C1c2ccccc2[C@@]2(Cc3ccccc3N(Cc3ccccc3)C2=O)[C@H](c2ccc(CO)cc2)N1Cc1ccccc1	-0.737
NC(=O)NCC#Cc1ccc2c(c1)[C@]1(C(=O)N2)[C@H](C(=O)N2CCCCCCC2)[C@H]2C(=O)O[C@H](c3ccccc3)[C@H](c3ccccc3)N2[C@@H]1c1ccc(O)cc1	-0.284
C=C(COC)/C(=C/C[C@H](OC(=O)c1ccncc1)c1ccc(OCCO)cc1)c1cc(C(=O)OC)ccc1OC	1.59
O=C1O[C@@H](c2ccccc2)[C@@H](c2ccccc2)N2[C@@H](c3ccc(O)cc3)[C@]3(C(=O)Nc4ccc(C#CC5=CCCCC5)cc43)[C@@H](C(=O)N3CCCCCCC3)[C@H]12	1.09
C=CCC(OC(C)=O)[C@@H]1[C@@H](N(Cc2ccc(-c3ccccc3)cc2)C(=O)c2ccc(C)cc2)c2cc(OCCCO)ccc2N1C(=O)c1ccc2ccccc2c1 (some centres undefined)	1.34

Value source: PubChem BioAssay
